Entries and their pKi values follow.
experimentalSystem: human histamine H3 receptor (Homo sapiens)
Construct: One microgram of supercoiled H3 receptor cDNA was added to the cells and mixed; expressed in transfected cells; membranes prepared from cell pellets
assayDetails: [3H]-N-methylhistamine binding
Hey, just a heads up that pKi is the negative log base 10 of the concentration in molar.

| compound | testReadout | testValue |
| --- | --- | --- |
| FC(F)(F)c1cccc(N2CCN(Cc3cccc(C#CCCN4CCCCC4)c3)CC2)c1 | pKi | 7.04 |
| C(#Cc1cccc(CN2CCCCC2c2cccnc2)c1)CCN1CCCCC1 (stereo not drawn) | pKi | 7.96 |
| C(#Cc1ccc(CN2CCNCC2)cc1)CCN1CCCCC1 | pKi | 8.89 |
| CN1CCN(Cc2ccc(C#CCCN3CCCCC3)cc2)CC1 | pKi | 9.15 |
| C(#Cc1ccc(CN2CCN(Cc3ccccc3)CC2)cc1)CCN1CCCCC1 | pKi | 8.05 |

Request: Provide pKi, system human histamine H3 receptor (Homo sapiens), entry CN(CCc1c[nH]c2ccccc12)Cc1cccc(C#CCCN2CCCCC2)c1
Response: 8.70

====

// reported pKi per item
experimentalSystem: human histamine H3 receptor (Homo sapiens, UniProt Q9Y5N1)
Construct: One microgram of supercoiled H3 receptor cDNA was added to the cells and mixed; expressed in transfected cells; membranes prepared from cell pellets
Sequence (Q9Y5N1 whole entry): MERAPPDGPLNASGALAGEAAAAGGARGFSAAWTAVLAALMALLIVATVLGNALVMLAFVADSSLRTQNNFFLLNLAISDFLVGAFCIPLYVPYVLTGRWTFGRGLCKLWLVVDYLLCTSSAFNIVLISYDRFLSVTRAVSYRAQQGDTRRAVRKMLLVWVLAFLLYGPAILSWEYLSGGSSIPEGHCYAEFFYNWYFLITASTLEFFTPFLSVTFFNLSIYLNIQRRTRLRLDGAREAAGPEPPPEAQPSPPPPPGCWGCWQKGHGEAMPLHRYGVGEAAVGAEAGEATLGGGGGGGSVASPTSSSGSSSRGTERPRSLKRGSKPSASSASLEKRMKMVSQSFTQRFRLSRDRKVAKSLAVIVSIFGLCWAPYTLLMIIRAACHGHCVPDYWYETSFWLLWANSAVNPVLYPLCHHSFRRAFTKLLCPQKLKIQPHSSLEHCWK
assayDetails: [3H]-N-methylhistamine binding
reportedConditions: membranes of histamine H3 receptor-expressing SK-N-MC cells; 0.8 nM [3H]-N-methylhistamine; 45 min at 25° C.; read-out: Ki
Method: Transfection of Cells with Human Histamine Receptor A 10 cm tissue culture dish with a confluent monolayer of SK-N-MC cells was split two days prior to transfection. […] After 10 days dishes were analyzed for surviving colonies of cells. […] Cell pellets from histamine H3 receptor-expressing SK-N-MC cells were homogenized in 20 mM Tris HCl/0.5 mM EDTA. […] Filters were dried, added to 4 mL scintillation cocktail and then counted on a liquid scintillation counter. […]
// field semantics: pKi = negative decimal log of concentration (mol/L)

Request: # return recorded pKi for input C(#Cc1ccc(CN2CCCCC2)cc1)CCN1CCCC1 [Example 18]
Response: 8.70

====

Form field: pKi (one value per entry).
experimentalSystem: human histamine H3 receptor (Homo sapiens, UniProt Q9Y5N1)
Construct: One microgram of supercoiled H3 receptor cDNA was added to the cells and mixed; expressed in transfected cells; membranes prepared from cell pellets
assayDetails: [3H]-N-methylhistamine binding
reportedConditions: membranes of histamine H3 receptor-expressing SK-N-MC cells; 0.8 nM [3H]-N-methylhistamine; 45 min at 25° C.; read-out: Ki
# pKi: negative log10 of molar concentration; output just the value

| compound | experimentalSystem | pKi |
| --- | --- | --- |
| C(#Cc1cccc(CN2CCSCC2)c1)CCN1CCCCC1 | human histamine H3 receptor (Homo sapiens, UniProt Q9Y5N1) | 9.00 |
| CC(C)N1CCN(Cc2ccc(C#CCCN3CCCCC3)cc2)CC1 | human histamine H3 receptor (Homo sapiens, UniProt Q9Y5N1) | 8.89 |
| C(#Cc1ccc(CNC2CCc3ccccc32)cc1)CCN1CCCCC1 (centres unmarked) | human histamine H3 receptor (Homo sapiens, UniProt Q9Y5N1) | 8.89 |
| C(#Cc1cccc(CN2CCSC2)c1)CCN1CCCCC1 | human histamine H3 receptor (Homo sapiens, UniProt Q9Y5N1) | 9.00 |
| C(#Cc1ccc(CN2CCCC2)cc1)CCN1CCCCC1 | human histamine H3 receptor (Homo sapiens, UniProt Q9Y5N1) | 8.85 |
| CN(CCc1ccccn1)Cc1cccc(C#CCCN2CCCCC2)c1 | human histamine H3 receptor (Homo sapiens, UniProt Q9Y5N1) | 8.40 |
| C(#Cc1ccc(CN2CCCC3CCCCC32)cc1)CCN1CCCCC1 (centres unmarked) | human histamine H3 receptor (Homo sapiens, UniProt Q9Y5N1) | 9.10 |

Switching to the query record.
Request: Give the reported value of pKi for this record: C(#Cc1cccc(CN2CCOCCOCCOCC2)c1)CCN1CCCCC1
Response: 8.70
